# credit: patent US9550752B2

details: pH 2.7
Marks after values point to notes of the source that are not given here.
result-type: LogP

## Task Value lookup for LogP; key = OC(CCc1ccc(Cl)cc1)(Cc1ccncc1Cl)Cn1cncn1 (stereo not drawn)
## Result 2.40^[a]

## Task Value lookup for LogP; key = OC(Cc1ccnc(Cl)c1F)(Cn1cncn1)C1(F)CC1 (stereo not drawn)
## Result 1.23^[a]

## Task Value lookup for LogP; key = OC(Cc1ccc(Cl)nc1Cl)(Cn1cncn1)C1(Cl)CC1 (racemic)
## Result 2.55^[a]

## Task Value lookup for LogP; key = OC(Cc1ccccc1F)(Cc1cc(Cl)ncc1F)Cn1cncn1 (stereo not drawn)
## Result 2.34^[a]

## Task Value lookup for LogP; key = CC1(C(O)(Cc2cccnc2Cl)Cn2ncnc2S)CC1 (stereo not drawn)
## Result 2.14^[a]

## Task Value lookup for LogP; key = CC1(C(O)(Cc2ccncc2Cl)Cn2ncnc2S)CC1 (stereo not drawn)
## Result 1.96^[a]

## Task Value lookup for LogP; key = OC(Cc1ccnc(Cl)c1F)(Cn1cncn1)c1ccc(Cl)nc1 (stereo not drawn)
## Result 1.23^[a]

## Task Value lookup for LogP; key = CC(CF)(CF)C(O)(Cc1cc(Cl)ncc1F)Cn1cncn1 (racemic)
## Result 1.89^[a]

## Task Value lookup for LogP; key = CC(C)(C)C(O)(Cc1c(Cl)cncc1Cl)Cn1cncn1 (racemic)
## Result 2.34^[a]

###

conditions: pH 2.7
Marks after values point to notes of the source that are not given here.
result-type: LogP

## Task Value lookup for LogP; key = CCCCc1nc2ccccc2cc1CC(O)(Cn1ncnc1S)C(C)(C)C (stereo not shown)
## Result 1.88^[a]

## Task Value lookup for LogP; key = CC(C)CCC(O)(Cc1ccncc1Cl)Cn1cncn1 (racemic)
## Result 2.00^[a]

## Task Value lookup for LogP; key = CCC(C)(C)C(O)(Cc1ccncc1F)Cn1cncn1 (racemic)
## Result 1.73^[a]

## Task Value lookup for LogP; key = CC(CF)(CF)C(O)(Cc1ccncc1F)Cn1ncnc1S (stereo not shown)
## Result 1.58^[a]

## Task Value lookup for LogP; key = OC(Cc1ccncc1C(F)(F)F)(Cn1cncn1)C1(Cl)CC1 (stereo not shown)
## Result 2.08^[a]

## Task Value lookup for LogP; key = CC(C)(Oc1ccc(Cl)cc1)C(O)(Cc1ccncc1Cl)Cn1cncn1 (stereo not shown)
## Result 2.84^[a]

## Task Value lookup for LogP; key = CC(C)(C)C(O)(Cc1ccc(Cl)c(Cl)n1)Cn1ncnc1S (stereo not shown)
## Result 3.00^[a]

## Task Value lookup for LogP; key = Cc1cccc(CC(O)(Cn2cncn2)C2(Cl)CC2)n1 (racemic)
## Result 0.52^[a]

## Task Value lookup for LogP; key = CC1(C(O)(Cc2ccncc2Cl)Cn2cncn2)CC1 (racemic)
## Result 1.57^[a]

## Task Value lookup for LogP; key = OC(Cc1cc(Cl)cnc1Cl)(Cn1cncn1)C1(Cl)CC1 (stereo not shown)
## Result 2.53^[a]

###

assay: physchem; conditions: reversed phase HPLC column, pH 7.8
result-type: chromatographic logP
Respond with the number and no other words.

## Task Value lookup for chromatographic logP; key = OC(Cc1ccncc1Cl)(Cn1cncn1)C1(Cl)CC1 (stereo not shown)
## Result 1.75

###

settings: pH 7.8
Would you mind telling me the reported LogP of each entry?

## Task Value lookup for LogP; key = CCOC(=O)OC(Cc1cccnc1Cl)(Cn1cncn1)C(C)(C)C (racemic) [XXI-121]
## Result 2.56^[b];

## Task Value lookup for LogP; key = CC(C)(CCl)C(O)(Cc1ccncc1Cl)Cn1cncn1 (stereo not drawn) [XXI-95]
## Result 1.96^[b];

## Task Value lookup for LogP; key = CCOC(C)(C)C(O)(Cc1ccncc1Cl)Cn1cncn1 (racemic) [XXI-129]
## Result 2.04^[b];

## Task Value lookup for LogP; key = CC(C)(C)C(O)(Cc1ccc(Cl)nc1)Cn1cncn1 (stereo not drawn) [XXI-9]
## Result 1.98^[b];

## Task Value lookup for LogP; key = CC(C)(Oc1ccc(F)cc1)C(O)(Cc1ccncc1Cl)Cn1cncn1 (stereo not drawn) [XXI-96]
## Result 2.60^[b];

## Task Value lookup for LogP; key = CC(C)(C)C(O)(Cc1cccnc1Cl)Cn1cncn1 (stereo not drawn) [XXI-10]
## Result 1.90^[b];

###

details: pH 2.7
Marks after values point to notes of the source that are not given here.
result-type: LogP

## Task Value lookup for LogP; key = CCOC(C)(C)C(O)(Cc1ccncc1Cl)Cn1cncn1 (racemic)
## Result 1.90^[a]

## Task Value lookup for LogP; key = Cc1ccnc(CC(O)(Cn2cncn2)C2(Cl)CC2)c1 (racemic)
## Result 0.52^[a]

## Task Value lookup for LogP; key = OC(Cc1nccnc1Br)(Cn1cncn1)C1(Cl)CC1 (stereo not shown)
## Result 1.96^[a]

## Task Value lookup for LogP; key = OC(Cc1ccnnc1Cl)(Cn1cncn1)C1(Cl)CC1 (racemic)
## Result 1.31^[a]

## Task Value lookup for LogP; key = CC(C)(C)C(O)(Cc1nccnc1Cl)Cn1cncn1 (racemic)
## Result 2.01^[a]

## Task Value lookup for LogP; key = CC(C)(C)C(O)(Cc1cnc2ccccc2c1)Cn1cncn1 (stereo not shown)
## Result 1.18^[a]

## Task Value lookup for LogP; key = CC(C)(C)C(O)(Cc1ccnc2ccccc12)Cn1cncn1 (racemic)
## Result 1.17^[a]

## Task Value lookup for LogP; key = OC(Cc1cc(F)ncc1Cl)(Cn1cncn1)C1(Cl)CC1 (stereo not shown)
## Result 2.30^[a]

## Task Value lookup for LogP; key = OC(Cc1ccncc1F)(Cn1ncnc1S)C1(F)CC1 (stereo not shown)
## Result 1.29^[a]

## Task Value lookup for LogP; key = CC(C)(CCl)C(O)(Cc1ccncc1Cl)Cn1cncn1 (stereo not shown)
## Result 1.76^[a]

###

settings: pH 2.7
Marks after values point to notes of the source that are not given here.
result-type: LogP

## Task Value lookup for LogP; key = OC(Cc1cc(Cl)ncc1Cl)(Cn1cncn1)C1(Cl)CC1 (racemic) [XXI-63]
## Result 2.53^[a]

## Task Value lookup for LogP; key = CC(C)(C)C(O)(Cc1cnc2ccccc2c1)Cn1ncnc1S (centres unmarked) [Example I-5]
## Result 1.58^[a]

## Task Value lookup for LogP; key = OC(CCl)(Cc1cc(Cl)nc(Cl)c1)C1(Cl)CC1 (centres unmarked) [XV-1]
## Result 3.85^[a]

## Task Value lookup for LogP; key = OC(Cc1ccncc1F)(Cn1ncnc1S)C1(Cl)CC1 (centres unmarked) [Example I-19]
## Result 1.65^[a]

## Task Value lookup for LogP; key = OC(Cc1ccncn1)(Cn1cncn1)C1(Cl)CC1 (racemic) [XXI-55]
## Result 1.10^[a]

## Task Value lookup for LogP; key = OC(Cc1cc(Cl)ccn1)(Cn1cncn1)C1(Cl)CC1 (racemic) [XXI-52]
## Result 2.02^[a]

## Task Value lookup for LogP; key = Cc1cccc2cc(CC(O)(Cn3cncn3)C3(Cl)CC3)c(Cl)nc12 (centres unmarked) [XXI-89]
## Result 3.53^[a]

## Task Value lookup for LogP; key = CC(C)(C)C(O)(Cc1ccncc1Cl)Cn1cncn1 (centres unmarked) [XXI-11]
## Result 1.74^[a]

## Task Value lookup for LogP; key = CC(CF)(CF)C(O)(Cc1ccnc(Cl)c1)Cn1cncn1 (racemic) [XXI-41]
## Result 1.66^[a]

## Task Value lookup for LogP; key = OC(Cc1cccc(Cl)c1)(Cc1ccnc(Cl)c1)Cn1cncn1 (racemic) [XXI-42]
## Result 2.42^[a]

## Task Value lookup for LogP; key = OC(Cc1cccc(Cl)c1)(Cc1cc(Cl)ncc1F)Cn1cncn1 (centres unmarked) [XXI-79]
## Result 2.69^[a]

## Task Value lookup for LogP; key = OC(Cc1cc(Cl)ncc1F)(Cn1cncn1)c1cccnc1Cl (racemic) [XXI-48]
## Result 1.57^[a]

## Task Value lookup for LogP; key = CC(C)(F)C(O)(Cc1ccncc1Cl)Cn1cncn1 (centres unmarked) [XXI-81]
## Result 1.20^[a]

## Task Value lookup for LogP; key = OC(Cc1cc(Cl)ncc1F)(Cn1cncn1)C1(Cl)CC1 (racemic) [XXI-45]
## Result 2.06^[a]

## Task Value lookup for LogP; key = CC(C)(C)C(O)(Cc1cc(Cl)cc(Cl)n1)Cn1ncnc1S (centres unmarked) [Example I-10]
## Result 3.07^[a]

## Task Value lookup for LogP; key = OC(Cc1ccnc(Cl)c1)(Cn1cncn1)C1(Cl)CC1 (racemic) [XXI-44]
## Result 1.76^[a]

## Task Value lookup for LogP; key = OC(Cc1cc(Cl)ncc1F)(Cn1cncn1)C1(F)CC1 (racemic) [XXI-46]
## Result 1.66^[a]

## Task Value lookup for LogP; key = OC(COc1ccc(F)cc1)(Cc1ccncc1Cl)Cn1cncn1 (centres unmarked) [XXI-84]
## Result 1.86^[a]

## Task Value lookup for LogP; key = CC(C)(C)C(O)(Cc1cccc(Cl)n1)Cn1cncn1 (racemic) [XXI-110]
## Result 2.30^[a]

## Task Value lookup for LogP; key = OC(Cc1cncc(Oc2ccc(Cl)cc2)n1)(Cn1cncn1)C1(Cl)CC1 (racemic) [XXI-61]
## Result 2.88^[a]
